All figures here come from patent EP1406920B1.

# target_entity: TAFI purifié (Homo sapiens)
# Sequence (Q96IY4 115-423): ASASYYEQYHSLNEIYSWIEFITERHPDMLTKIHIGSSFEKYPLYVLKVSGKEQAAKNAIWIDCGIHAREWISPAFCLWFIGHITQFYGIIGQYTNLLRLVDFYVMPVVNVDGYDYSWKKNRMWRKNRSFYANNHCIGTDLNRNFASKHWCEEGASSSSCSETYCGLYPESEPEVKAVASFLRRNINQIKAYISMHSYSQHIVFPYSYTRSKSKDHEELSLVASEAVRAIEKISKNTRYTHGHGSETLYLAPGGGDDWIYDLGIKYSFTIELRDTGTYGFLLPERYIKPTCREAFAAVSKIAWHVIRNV
# protocol_notes: Colorimetric TAFI activity assay on purified TAFI with different substrates (thrombin/thrombomodulin activation, carboxypeptidase A revelation)
# Assay type: biochemical
# run_parameters: substrate 5 mM; 6,5 µg/ml TAFI purifié in hépès buffer; read at 320-350 nm
measured_attribute: Delta DO

Solved cases below.
Prompt line: Reported Delta DO, compound Cc1ccc(N=NC(=O)N[C@@H](Cc2ccccc2)C(=O)N[C@@H](CCCNC(=N)N)C(=O)O)c(C)c1 [2,4 DMPAFFR] : ____
Response line: 0.917

Prompt line: And COc1ccc(N=NC(=O)N[C@@H](Cc2ccccc2)C(=O)N[C@@H](CCCCN)C(=O)O)cc1 [MxPAFFK] ?
Response line: 0.842

1 = Cc1ccc(C)c(N=NC(=O)N[C@@H](Cc2ccccc2)C(=O)N[C@@H](CCCNC(=N)N)C(=O)O)c1 [2,5 DMPAFFR]
2 = Cc1cccc(N=NC(=O)N[C@@H](Cc2ccccc2)C(=O)N[C@@H](CCCNC(=N)N)C(=O)O)c1C [2,3 DMPAFFR]
Prompt line: Endpoint returns whichever of 1 and 2 has the numerically higher Delta DO. Write down the label of the entry you select.
Response line: 1
(1: 0.842, 2: 0.229)
